B1: PhoQ; a variant is named by its letters at X, in order, P23837 (parent)
chain: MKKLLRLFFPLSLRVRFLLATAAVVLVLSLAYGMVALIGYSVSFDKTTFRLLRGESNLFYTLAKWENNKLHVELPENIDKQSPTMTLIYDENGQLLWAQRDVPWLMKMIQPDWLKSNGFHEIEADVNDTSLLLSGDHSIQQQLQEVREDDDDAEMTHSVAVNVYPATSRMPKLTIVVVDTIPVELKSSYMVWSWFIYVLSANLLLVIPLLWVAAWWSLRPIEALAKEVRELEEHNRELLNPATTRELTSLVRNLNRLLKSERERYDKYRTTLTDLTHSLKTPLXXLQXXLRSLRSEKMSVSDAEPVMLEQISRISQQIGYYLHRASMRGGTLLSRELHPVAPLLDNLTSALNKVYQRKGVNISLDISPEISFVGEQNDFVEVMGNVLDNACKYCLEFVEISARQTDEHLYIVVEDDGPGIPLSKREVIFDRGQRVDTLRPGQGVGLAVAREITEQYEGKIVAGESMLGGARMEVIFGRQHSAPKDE

variants of: B1; assay: enrichment ratio after two sorts for PhoP signalling (ratio (wild type AVST 3.29)); higher = more functional; details: with PhoP (E. coli)
Whole data set: some 140,000 sequences, median “enrichment ratio after two sorts for PhoP signalling” near 0, cut for the highest 2% near 11. What follows is part of a selection rich in the highest values, with near analogues and random picks from the rest.
Reported Property: enrichment ratio

Changes: NSAY
enrichment ratio: ≤ 0.25
--
Changes: VIHS
enrichment ratio: ≤ 0.25
--
Changes: KSAC
enrichment ratio: ≤ 0.25
--
Changes: TEAC
enrichment ratio: 25.6
--
Changes: WDRM
enrichment ratio: ≤ 0.25
--
Changes: AKCC
enrichment ratio: 15.2
--
Changes: TKNI
enrichment ratio: 13.3
--
Changes: SQAC
enrichment ratio: 13.4
--
Changes: EQAC
enrichment ratio: ≤ 0.25
--
Changes: KAAC
enrichment ratio: ≤ 0.25

Determine from records and report enrichment ratio for "HKCC"
≤ 0.25
